Hi there, I'd appreciate the recorded pIC50 for every entry that follows.
biological target: CRBN/DDB1 (Homo sapiens (Human), UniProt Q96SW2); assay type: binding; details: His tagged CRBN+DDB-DLS7+CXU4, Cy5-labeled Thalidomide probe, one hour incubation; read-out: CRBN HTRF IC50
Sequence (Q96SW2 whole entry): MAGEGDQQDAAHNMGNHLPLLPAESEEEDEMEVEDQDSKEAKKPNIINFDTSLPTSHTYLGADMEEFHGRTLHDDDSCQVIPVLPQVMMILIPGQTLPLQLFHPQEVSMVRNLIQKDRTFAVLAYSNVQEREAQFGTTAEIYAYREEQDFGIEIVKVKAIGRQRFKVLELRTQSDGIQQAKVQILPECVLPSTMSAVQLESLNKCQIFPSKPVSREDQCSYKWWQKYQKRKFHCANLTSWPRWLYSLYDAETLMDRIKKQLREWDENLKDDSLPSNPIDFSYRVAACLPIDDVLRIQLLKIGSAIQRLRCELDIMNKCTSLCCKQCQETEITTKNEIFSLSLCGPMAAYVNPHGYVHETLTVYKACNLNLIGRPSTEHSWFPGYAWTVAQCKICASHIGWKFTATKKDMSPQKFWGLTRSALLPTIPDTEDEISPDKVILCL
Sequence (Q16531 whole entry partner): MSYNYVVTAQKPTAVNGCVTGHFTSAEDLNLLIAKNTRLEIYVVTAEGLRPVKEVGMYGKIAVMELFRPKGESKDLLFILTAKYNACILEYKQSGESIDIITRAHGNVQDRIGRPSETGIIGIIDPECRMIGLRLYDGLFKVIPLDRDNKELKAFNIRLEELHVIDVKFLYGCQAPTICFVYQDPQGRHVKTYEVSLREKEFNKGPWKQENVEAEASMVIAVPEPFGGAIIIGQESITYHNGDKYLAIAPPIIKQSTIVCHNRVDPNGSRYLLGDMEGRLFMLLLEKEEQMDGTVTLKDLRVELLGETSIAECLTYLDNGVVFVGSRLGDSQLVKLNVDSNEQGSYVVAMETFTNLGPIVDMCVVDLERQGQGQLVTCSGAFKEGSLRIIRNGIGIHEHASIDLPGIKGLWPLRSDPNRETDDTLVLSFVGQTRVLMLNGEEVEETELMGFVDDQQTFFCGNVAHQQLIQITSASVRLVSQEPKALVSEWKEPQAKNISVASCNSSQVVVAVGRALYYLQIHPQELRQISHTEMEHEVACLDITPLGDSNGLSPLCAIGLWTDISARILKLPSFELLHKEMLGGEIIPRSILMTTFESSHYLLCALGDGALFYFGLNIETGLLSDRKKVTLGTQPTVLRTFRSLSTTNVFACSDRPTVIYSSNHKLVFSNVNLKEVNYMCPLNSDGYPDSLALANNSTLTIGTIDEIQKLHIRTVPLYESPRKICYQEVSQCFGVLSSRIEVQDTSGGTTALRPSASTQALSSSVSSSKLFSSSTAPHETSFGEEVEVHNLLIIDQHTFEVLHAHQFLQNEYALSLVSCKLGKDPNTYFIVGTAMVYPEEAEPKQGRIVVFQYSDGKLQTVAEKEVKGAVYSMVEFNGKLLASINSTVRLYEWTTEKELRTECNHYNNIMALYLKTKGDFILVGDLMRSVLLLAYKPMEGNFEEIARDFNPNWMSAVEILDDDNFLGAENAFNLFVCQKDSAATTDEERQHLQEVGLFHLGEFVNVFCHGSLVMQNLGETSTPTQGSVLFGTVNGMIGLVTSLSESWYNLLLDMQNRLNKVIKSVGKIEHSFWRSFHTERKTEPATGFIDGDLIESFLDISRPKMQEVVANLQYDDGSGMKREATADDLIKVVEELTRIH
pIC50: −log10 of the molar value.

Item COc1cc(N2CCC(CN3CCN4c5ccc6c(c5OC[C@H]4C3)CN([C@@H]3CCC(=O)NC3=O)C6=O)CC2)ccc1[C@@H]1c2[nH]c3ccccc3c2C[C@@H](C)N1CC(F)F [Compound A37] has what recorded pIC50? < 5.30

Give the measured pIC50 of C[C@@H]1Cc2c([nH]c3ccccc23)[C@@H](c2cnc(OC3CC(C(=O)N4CCC(N5Cc6cc7c(cc6C5)C(=O)N(C5CCC(=O)NC5=O)C7=O)CC4)C3)nc2)N1CC(F)F (stereo partly drawn) [Compound A18] . 6.30 to 7.30

Please look up its pIC50: COc1cc(N2CCC(CN3CCN(c4ccc(C5CCC(=O)NC5=O)cc4)CC3)CC2)ccc1[C@@H]1c2[nH]c3ccccc3c2C[C@@H](C)N1CC(F)F (stereo partly drawn) [Compound A46] 6.30 to 7.30

# pIC50 lookup, item CS(=O)(=O)N1CCc2c([nH]c3ccccc23)[C@H]1c1c(F)cc(N2CCC(CN3CCN4c5cc6c(cc5OC[C@@H]4C3)C(=O)N([C@H]3CCC(=O)NC3=O)C6)CC2)cc1F [Compound A17] < 5.30

Which pIC50 value is on record for COc1cc(N2CCC(CN3CCN4c5ccc(C(=O)NC6CCC(=O)NC6=O)nc5OC[C@H]4C3)CC2)ccc1[C@H]1c2[nH]c3ccccc3c2C[C@H](C)N1CC(F)F (stereo partly drawn) [Compound A54] ? 5.30 to 6.30

// query pIC50 value for entry C[C@@H]1Cc2c([nH]c3ccccc23)[C@@H](c2cnc(N3CC[C@@H](CN4CCN5c6ccc7c(c6OC[C@@H]5C4)CN(C4CCC(=O)NC4=O)C7=O)C3)nc2)N1CC(F)F (stereo partly drawn) [Compound A14] > 7.30

Form field: reported pIC50 of COc1cc(N2CCC(CN3CCC(c4ccc(N[C@H]5CCC(=O)NC5=O)c(F)c4)CC3)CC2)ccc1[C@@H]1c2[nH]c3ccccc3c2C[C@@H](C)N1CC(F)F [Compound A40] < 5.30

What does the data say about its pIC50? Entry: C[C@@H]1Cc2c([nH]c3ccccc23)[C@@H](c2cnc(N3CCO[C@H](CN4CCN5c6cc7c(cc6OC[C@@H]5C4)C(=O)N(C4CCC(=O)NC4=O)C7)C3)nc2)N1CC(C)(C)F (stereo partly drawn) [Compound A22] 6.30 to 7.30

Bench note: what pIC50 did COc1ccc(C(=O)N2CCC(CN3CCN(c4ncc([C@@H]5c6[nH]c7ccccc7c6C[C@@H](C)N5CC(F)F)cn4)CC3)CC2)cc1N1CCC(=O)NC1=O [Compound A7] show? 5.30 to 6.30

====

biological target: ER (Homo sapiens (Human), UniProt P03372); experiment: Western blot analysis (Compounds B1-B278); format: cell-based; details: ER degradation by traditional Western blot; DC50 classes
Sequence (P03372 whole entry): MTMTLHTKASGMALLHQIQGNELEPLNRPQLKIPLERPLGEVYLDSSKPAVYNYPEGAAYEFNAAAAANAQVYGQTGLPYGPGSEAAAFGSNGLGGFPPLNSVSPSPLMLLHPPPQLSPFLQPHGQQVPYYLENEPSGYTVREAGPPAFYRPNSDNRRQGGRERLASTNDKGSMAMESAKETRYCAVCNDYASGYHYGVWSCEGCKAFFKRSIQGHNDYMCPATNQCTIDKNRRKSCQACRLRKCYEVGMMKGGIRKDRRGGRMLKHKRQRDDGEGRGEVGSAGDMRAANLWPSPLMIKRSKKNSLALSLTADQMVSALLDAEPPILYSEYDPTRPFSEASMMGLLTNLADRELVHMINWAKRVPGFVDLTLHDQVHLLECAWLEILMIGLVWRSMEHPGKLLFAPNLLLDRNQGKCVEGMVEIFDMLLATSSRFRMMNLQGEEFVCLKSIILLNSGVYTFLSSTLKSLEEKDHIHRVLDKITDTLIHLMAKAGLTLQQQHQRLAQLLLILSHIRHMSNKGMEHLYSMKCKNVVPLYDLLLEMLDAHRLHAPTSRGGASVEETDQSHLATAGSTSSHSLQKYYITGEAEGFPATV
readout: Traditional Western Degradation Potency

compound: C[C@H]1Cc2c([nH]c3ccccc23)[C@H](c2c(F)cc(N3CC4(CCCN(C(=O)CN5Cc6cc7c(cc6C5)C(=O)N(C5CCC(=O)NC5=O)C7=O)C4)C3)cc2F)N1CC(F)F (stereo partly drawn)
Traditional Western Degradation Potency: B (“B”: 10-100 nM)
//
compound: C[C@@H]1Cc2c([nH]c3ccccc23)[C@@H](c2c(F)cc(N3CC(F)(C(=O)N4CCC(F)(CN5Cc6cc7c(cc6C5)C(=O)N(C5CCC(=O)NC5=O)C7=O)CC4)C3)cc2F)N1CC(F)F (stereo partly drawn)
Traditional Western Degradation Potency: C (“C”: >100 nM)
//
compound: COc1cc([C@H]2CC[C@@H](C(=O)N3CCC(N4Cc5cc6c(cc5C4)C(=O)N(C4CCC(=O)NC4=O)C6=O)CC3)CC2)ncc1[C@@H]1c2[nH]c3ccccc3c2C[C@@H](C)N1CC(F)F (stereo partly drawn)
Traditional Western Degradation Potency: C (“C”: >100 nM)
//
compound: C[C@@H]1Cc2c([nH]c3ccccc23)[C@@H](c2c(F)cc(N3CC4(CCN(CC(=O)N5Cc6cc7c(cc6C5)C(=O)N(C5CCC(=O)NC5=O)C7=O)CC4)C3)cc2F)N1CC(F)F (stereo partly drawn)
Traditional Western Degradation Potency: B (“B”: 10-100 nM)
//
compound: C[C@@H]1Cc2c([nH]c3ccccc23)[C@@H](c2c(F)cc(N3CCC(N4Cc5cc6c(cc5C4)C(=O)N(C4CCC(=O)NC4=O)C6=O)CC3)cc2F)N1CC(F)F (stereo partly drawn)
Traditional Western Degradation Potency: C (“C”: >100 nM)

Observed Traditional Western Degradation Potency on ER (Homo sapiens (Human), UniProt P03372) for C[C@@H]1Cc2c([nH]c3ccccc23)[C@@H](c2c(F)cc(N3CC4(CN(CC(=O)N5Cc6cc7c(cc6C5)C(=O)N(C5CCC(=O)NC5=O)C7)C4)C3)cc2F)N1CC(F)F (stereo partly drawn) , please. A (“A”: <10 nM)

Item C[C@@H]1Cc2c([nH]c3ccccc23)[C@@H](c2c(F)cc(N3CCC(CN4CCC(C(=O)N5Cc6cc7c(cc6C5)C(=O)N(C5CCC(=O)NC5=O)C7=O)CC4)C3)cc2F)N1CC(F)F (stereo partly drawn) with ER (Homo sapiens (Human), UniProt P03372) - Traditional Western Degradation Potency? A (“A”: <10 nM)

# query: Traditional Western Degradation Potency | item C[C@@H]1Cc2c([nH]c3ccccc23)[C@@H](c2c(F)cc(N3CCC4(CC3)CN(CC3Cc5cc6c(cc5C3)C(=O)N(C3CCC(=O)NC3=O)C6=O)C4)cc2F)N1CC(F)F (stereo partly drawn) | system: ER (Homo sapiens (Human), UniProt P03372) C (“C”: >100 nM)

====

target: UniProt:P03372; assay: Western blot analysis (Compounds B1-B278); assay type: cell-based; details: ER degradation by traditional Western blot; DC50 classes

molecule: C[C@@H]1Cc2c([nH]c3ccccc23)[C@@H](c2c(F)cc(N3CCC(CN4CCC5(CCC(N6Cc7cc8c(cc7C6)C(=O)N(C6CCC(=O)NC6=O)C8=O)C5)CC4)CC3)cc2F)N1CC(F)F (stereo partly shown) [Compound B70]
Traditional Western Degradation Potency: B (“B”: 10-100 nM)
//
molecule: C[C@@H]1Cc2c([nH]c3ccccc23)[C@@H](c2c(F)cc(N3CCCC(CN4CCC(C(=O)N5Cc6cc7c(cc6C5)C(=O)N(C5CCC(=O)NC5=O)C7=O)CC4)C3)cc2F)N1CC(F)F (stereo partly shown) [Compound B189]
Traditional Western Degradation Potency: B (“B”: 10-100 nM)
